Assay: Half life in Sprague-Dawley rat at 5 mg/kg, po and measured upto 24 hrs by LC-MS analysis
Format: ADME, organism-based
Settings: in vivo
Assay readout: half-life (h)

>>> df
                            compound_string  value_measured
0  C[C@@H]1COCCN1c1nc(-c2cccc3[nH]ccc23)nc2c1CN(C(=O)c1cccc(S(C)(=O)=O)c1)C2(C)C            2.66
1  C[C@@H]1COCCN1c1nc(-c2cccc3[nH]ccc23)nc2c1CN(C(=O)c1ccc(S(C)(=O)=O)cc1)C2(C)C            4.38
2  COc1cccc(C(=O)N2Cc3c(N4CCOC[C@H]4C)nc(-c4cccc5[nH]ccc45)nc3C2(C)C)c1            1.87

(I) C[C@@H]1COCCN1c1nc(-c2cccc3[nH]ccc23)nc2c1CN(C(=O)c1ccc3c(c1)OCO3)C2(C)C
(II) COc1ccc(C(=O)N2Cc3c(N4CCOC[C@H]4C)nc(-c4cccc5[nH]ccc45)nc3C2(C)C)cc1
Asked: Task for the reader: decide whether I or II has the larger half-life. Identify your pick by its label.
Given back: II

====

Experiment: AUCt in Sprague-Dawley rat at 5 mg/kg, po and measured upto 24 hrs by LC-MS analysis
Type: ADME, organism-based
Parameters: time < 24 hrs, dose 5 mg/kg, route po
Details: in vivo
Assay readout: AUC(0-t) at 24 h (ng·h/mL)

>>> print(df.to_string())
                            compound_string     assay_readout  value_measured
0  C[C@@H]1COCCN1c1nc(-c2cccc3[nH]ccc23)nc2c1CN(C(=O)c1ccc3c(c1)OCO3)C2(C)C  AUC(0-t) at 24 h            5700
1  C[C@@H]1COCCN1c1nc(-c2cccc3[nH]ccc23)nc2c1CN(C(=O)c1cccc(S(C)(=O)=O)c1)C2(C)C  AUC(0-t) at 24 h            1620
2  COc1cccc(C(=O)N2Cc3c(N4CCOC[C@H]4C)nc(-c4cccc5[nH]ccc45)nc3C2(C)C)c1  AUC(0-t) at 24 h             323

(I) COc1ccc(C(=O)N2Cc3c(N4CCOC[C@H]4C)nc(-c4cccc5[nH]ccc45)nc3C2(C)C)cc1
(II) C[C@@H]1COCCN1c1nc(-c2cccc3[nH]ccc23)nc2c1CN(C(=O)c1ccc(S(C)(=O)=O)cc1)C2(C)C
Asked: Could you determine which record has the numerically smaller AUC(0-t) at 24 h? Candidates: I and II In your reply, give the label of the chosen option.
Given back: II
(II: 185 ng·h/mL, I: 452 ng·h/mL)

====

Experiment: Apparent permeability across apical to basolateral side in human Caco-2 cells by bidirectional permeability assay
Format: ADME, cell-based
Assay readout: Papp A→B (×10⁻⁶ cm/s)

(a) C[C@@H]1COCCN1c1nc(-c2cccc3[nH]ccc23)nc2c1CN(C(=O)c1ccc3c(c1)OCO3)C2(C)C
(b) C[C@@H]1COCCN1c1nc(-c2cccc3[nH]ccc23)nc2c1CN(C(=O)c1cccc(S(C)(=O)=O)c1)C2(C)C
Asked: Kindly identify which of a and b has the larger recorded Papp A→B value. Mark your answer with the label of the selected entry.
Given back: b

====

Experiment: MRT(t) in Sprague-Dawley rat at 1 mg/kg, iv and measured upto 24 hrs by LC-MS analysis
Assay type: ADME, organism-based
Conditions: in vivo
Assay readout: MRT last at 24 h (h)

                            compound_string  value_measured
0  COc1cccc(C(=O)N2Cc3c(N4CCOC[C@H]4C)nc(-c4cccc5[nH]ccc45)nc3C2(C)C)c1            1.02

(a) C[C@@H]1COCCN1c1nc(-c2cccc3[nH]ccc23)nc2c1CN(C(=O)c1cccc(S(C)(=O)=O)c1)C2(C)C
(b) C[C@@H]1COCCN1c1nc(-c2cccc3[nH]ccc23)nc2c1CN(C(=O)c1ccc3c(c1)OCO3)C2(C)C
(c) COc1ccc(C(=O)N2Cc3c(N4CCOC[C@H]4C)nc(-c4cccc5[nH]ccc45)nc3C2(C)C)cc1
(d) C[C@@H]1COCCN1c1nc(-c2cccc3[nH]ccc23)nc2c1CN(C(=O)c1ccc(S(C)(=O)=O)cc1)C2(C)C
Asked: Sort by MRT last at 24 h, descending. Show the ranking through the labels, in the order asked for.
Given back: d, c, b, a
(d: 5.21 h, c: 2.99 h, b: 1.99 h, a: 1.36 h)

====

Test: AUC (0 to infinity) in Sprague-Dawley rat at 5 mg/kg, po and measured upto 24 hrs by LC-MS analysis
Assay type: ADME, organism-based
Parameters: time < 24 hrs, dose 5 mg/kg, route po
Details: in vivo
Assay readout: AUC(0-inf) (ng·h/mL)

                            compound_string  value_measured
0  COc1cccc(C(=O)N2Cc3c(N4CCOC[C@H]4C)nc(-c4cccc5[nH]ccc45)nc3C2(C)C)c1             342

(1) C[C@@H]1COCCN1c1nc(-c2cccc3[nH]ccc23)nc2c1CN(C(=O)c1cccc(S(C)(=O)=O)c1)C2(C)C
(2) C[C@@H]1COCCN1c1nc(-c2cccc3[nH]ccc23)nc2c1CN(C(=O)c1ccc(S(C)(=O)=O)cc1)C2(C)C
(3) C[C@@H]1COCCN1c1nc(-c2cccc3[nH]ccc23)nc2c1CN(C(=O)c1ccc3c(c1)OCO3)C2(C)C
Asked: Rank by AUC(0-inf) (largest to smallest). State the ranking by listing the labels in the requested order.
Given back: 3, 1, 2

====

Assay: Apparent permeability across basolateral to apical side in human Caco-2 cells by bidirectional permeability assay
Format: ADME, cell-based
Assay readout: Papp B→A (nm/s)

(P) C[C@@H]1COCCN1c1nc(-c2cccc3[nH]ccc23)nc2c1CN(C(=O)c1ccc3c(c1)OCO3)C2(C)C
(Q) C[C@@H]1COCCN1c1nc(-c2cccc3[nH]ccc23)nc2c1CN(C(=O)c1cccc(S(C)(=O)=O)c1)C2(C)C
Asked: Choose between P and Q : whose measured Papp B→A value is numerically larger? Your answer should be the label of the entry you select.
Given back: Q

====

Test: Volume of distribution at steady state in Sprague-Dawley rat at 1 mg/kg, iv and measured upto 24 hrs by LC-MS analysis
Format: ADME, organism-based
Conditions: in vivo, read-out: Vdss
Assay readout: Vd (L/kg)

>>> df
                            compound_string  value_measured
0  C[C@@H]1COCCN1c1nc(-c2cccc3[nH]ccc23)nc2c1CN(C(=O)c1cccc(S(C)(=O)=O)c1)C2(C)C            1.24
1  COc1cccc(C(=O)N2Cc3c(N4CCOC[C@H]4C)nc(-c4cccc5[nH]ccc45)nc3C2(C)C)c1             1.3

(I) COc1ccc(C(=O)N2Cc3c(N4CCOC[C@H]4C)nc(-c4cccc5[nH]ccc45)nc3C2(C)C)cc1
(II) C[C@@H]1COCCN1c1nc(-c2cccc3[nH]ccc23)nc2c1CN(C(=O)c1ccc3c(c1)OCO3)C2(C)C
(III) C[C@@H]1COCCN1c1nc(-c2cccc3[nH]ccc23)nc2c1CN(C(=O)c1ccc(S(C)(=O)=O)cc1)C2(C)C
Asked: Kindly order the items shown according to Vd, from the highest value down. Use the labels to give the requested order.
Given back: III, I, II

====

Experiment: Aqueous solubility of compound at pH 2.0 by HPLC-MS/MS analysis
Assay type: physicochemical
Conditions: aqueous medium
Assay readout: solubility (µM)

(A) C[C@@H]1COCCN1c1nc(-c2cccc3[nH]ccc23)nc2c1CN(C(=O)c1ccc3c(c1)OCO3)C2(C)C
(B) C[C@@H]1COCCN1c1nc(-c2cccc3[nH]ccc23)nc2c1CN(C(=O)c1cccc(S(C)(=O)=O)c1)C2(C)C
Asked: Larger number for solubility: A , or B ? Lab note: record the label of whichever item you select.
Given back: B

====

Target: Serine/threonine-protein kinase ATR (Homo sapiens)
Sequence (Q13535 whole entry, looked up): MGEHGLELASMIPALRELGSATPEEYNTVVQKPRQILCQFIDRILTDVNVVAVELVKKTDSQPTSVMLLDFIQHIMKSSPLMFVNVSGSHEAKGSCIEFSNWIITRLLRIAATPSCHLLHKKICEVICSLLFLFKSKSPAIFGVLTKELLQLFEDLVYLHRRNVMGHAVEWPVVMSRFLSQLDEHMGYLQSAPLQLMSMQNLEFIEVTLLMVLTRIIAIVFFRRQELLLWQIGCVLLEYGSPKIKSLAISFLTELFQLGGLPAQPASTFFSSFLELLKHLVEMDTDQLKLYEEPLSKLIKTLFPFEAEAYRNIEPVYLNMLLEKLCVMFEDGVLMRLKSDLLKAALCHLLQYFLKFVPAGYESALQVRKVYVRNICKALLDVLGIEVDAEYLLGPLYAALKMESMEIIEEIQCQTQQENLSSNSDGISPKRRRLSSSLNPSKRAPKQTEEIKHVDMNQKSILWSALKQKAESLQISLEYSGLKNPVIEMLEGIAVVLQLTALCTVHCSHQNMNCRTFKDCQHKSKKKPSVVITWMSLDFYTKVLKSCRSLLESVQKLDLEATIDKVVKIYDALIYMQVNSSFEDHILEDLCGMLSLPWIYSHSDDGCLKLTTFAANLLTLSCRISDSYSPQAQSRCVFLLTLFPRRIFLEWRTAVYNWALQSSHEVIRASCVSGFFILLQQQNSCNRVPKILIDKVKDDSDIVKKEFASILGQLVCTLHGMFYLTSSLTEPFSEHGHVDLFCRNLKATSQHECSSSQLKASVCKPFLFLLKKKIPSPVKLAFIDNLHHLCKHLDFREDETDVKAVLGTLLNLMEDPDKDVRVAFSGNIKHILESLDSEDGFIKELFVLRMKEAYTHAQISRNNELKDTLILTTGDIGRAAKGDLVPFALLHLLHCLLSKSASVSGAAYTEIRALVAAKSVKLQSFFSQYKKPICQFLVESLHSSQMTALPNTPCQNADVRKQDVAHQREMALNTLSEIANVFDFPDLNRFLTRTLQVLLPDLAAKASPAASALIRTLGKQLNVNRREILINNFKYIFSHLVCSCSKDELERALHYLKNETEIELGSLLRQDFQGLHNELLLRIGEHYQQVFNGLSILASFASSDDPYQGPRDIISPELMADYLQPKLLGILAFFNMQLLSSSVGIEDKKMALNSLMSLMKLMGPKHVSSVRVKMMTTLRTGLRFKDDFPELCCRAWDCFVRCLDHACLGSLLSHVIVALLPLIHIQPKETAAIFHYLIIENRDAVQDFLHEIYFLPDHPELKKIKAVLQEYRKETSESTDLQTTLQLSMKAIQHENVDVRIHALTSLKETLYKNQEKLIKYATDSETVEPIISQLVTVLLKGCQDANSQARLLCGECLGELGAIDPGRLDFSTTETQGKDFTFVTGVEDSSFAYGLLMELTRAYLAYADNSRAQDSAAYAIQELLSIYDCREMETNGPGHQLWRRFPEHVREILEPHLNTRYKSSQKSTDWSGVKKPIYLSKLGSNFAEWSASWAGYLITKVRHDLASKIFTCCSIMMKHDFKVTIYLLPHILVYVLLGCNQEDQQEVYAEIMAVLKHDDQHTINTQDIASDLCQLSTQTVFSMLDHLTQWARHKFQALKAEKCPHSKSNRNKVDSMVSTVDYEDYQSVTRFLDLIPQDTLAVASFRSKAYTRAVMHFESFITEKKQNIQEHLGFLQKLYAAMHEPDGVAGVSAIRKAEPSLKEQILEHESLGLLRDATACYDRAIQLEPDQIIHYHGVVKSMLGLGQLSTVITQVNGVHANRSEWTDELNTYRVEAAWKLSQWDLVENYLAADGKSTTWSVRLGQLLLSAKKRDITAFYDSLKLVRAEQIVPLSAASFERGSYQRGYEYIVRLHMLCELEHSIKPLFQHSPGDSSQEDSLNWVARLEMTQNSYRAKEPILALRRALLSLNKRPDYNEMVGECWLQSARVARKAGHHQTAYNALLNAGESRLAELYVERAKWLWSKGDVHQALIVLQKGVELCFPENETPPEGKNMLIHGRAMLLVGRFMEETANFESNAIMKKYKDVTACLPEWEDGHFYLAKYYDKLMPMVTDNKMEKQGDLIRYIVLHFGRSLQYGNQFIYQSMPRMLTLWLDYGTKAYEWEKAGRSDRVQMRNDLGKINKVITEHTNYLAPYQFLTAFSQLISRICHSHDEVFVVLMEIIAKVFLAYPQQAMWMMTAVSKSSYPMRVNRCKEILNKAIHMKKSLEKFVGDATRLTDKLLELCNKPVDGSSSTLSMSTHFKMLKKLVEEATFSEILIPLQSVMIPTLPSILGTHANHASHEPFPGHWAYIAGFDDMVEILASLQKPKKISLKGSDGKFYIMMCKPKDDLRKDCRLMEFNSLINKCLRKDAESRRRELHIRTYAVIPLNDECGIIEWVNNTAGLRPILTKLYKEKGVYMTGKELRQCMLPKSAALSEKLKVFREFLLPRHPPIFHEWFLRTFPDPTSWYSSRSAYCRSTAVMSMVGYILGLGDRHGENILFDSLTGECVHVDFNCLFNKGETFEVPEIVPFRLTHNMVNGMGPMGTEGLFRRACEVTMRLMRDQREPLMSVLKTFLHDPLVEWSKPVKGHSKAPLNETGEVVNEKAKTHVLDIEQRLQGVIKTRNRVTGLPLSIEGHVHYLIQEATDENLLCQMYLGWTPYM
Test: Inhibition of ATR (unknown origin) using peptide as substrate at 0.1 uM preincubated for 10 mins followed by substrate addition by microplate reader analysis
Assay readout: inhibition (%)

>>> print(df.to_string())
                            compound_string  assay_readout  value_measured
0  CC(=O)N1CCc2c(N3CCOC[C@H]3C)nc(-c3cccc4[nH]ccc34)nc2C1(C)C     inhibition            89.9

(1) C[C@@H]1COCCN1c1nc(-c2cccc3[nH]ccc23)nc2c1CCNC2(C)C
(2) C[C@@H]1COCCN1c1nc(-c2cccc3[nH]ccc23)nc2c1CCN(Cc1ccccc1)C2(C)C
Asked: Higher inhibition between 1 and 2 ? Let me know the label of the one you choose.
Given back: 1
(1: 70.7%, 2: 14.6%)
